Listing of recorded composite z-score by entry.
Tested on: XIP peptide (Xip251-270)
ASSAY_REMARKS: compounds binding XIP fragment 251-270 – biochemical, small-molecule microarray, fluorescence 635/667 nm, 0.5 µg/mL protein, primary screen (AID 1183)
ASSAY_SETUP: fluorescence 635 nm, higher = more signal
Respond numerically, and do not add a unit to the figure.

Below, 10 molecules whose answers are already recorded.
COC(=O)[C@@]1(Cc2ccccc2)[C@H]2c3cc(C(=O)N(C)C)[nH]c3C[C@H]2CN1C(=O)c1ccccc1	-0.456
COC(=O)C1(C)C=C2C(=C(C)C(=O)C2C)CN1 (centres undefined)	-0.628
COC(=O)[C@H]1[C@@H](O)[C@@]2(O)c3c(OC)cc(OC)cc3O[C@@]2(c2ccc(OC)cc2)[C@@H]1c1ccccc1	0.914
COC(=O)[C@H]1[C@H](c2ccccc2)C(=O)[C@]2(O)c3ccccc3O[C@@]12c1ccccc1	0.364
OCc1ccc(C2=CC(C3CC3)N(Cc3sc4ccccc4c3Cl)CC2)cc1 (centres undefined)	0.625
C[C@@H]1Cc2c(cnc3c2CN(C)CC3)CO1	0.188
COC(=O)[C@@]1(Cc2ccccc2)[C@H]2c3cc(C(=O)N(C)C)n(C)c3C[C@H]2CN1C(=O)c1ccccc1	-0.0822
C=C(CC1(CNP(=O)(c2ccccc2)c2ccccc2)CC1)c1ccccc1	0.651
COC(=O)NCC=Cc1nc(CCC=CC(=O)O[C@H]2CC3CC(=O)O[C@@H](C=CCC(C)C)C[C@@H]4CC[C@H](C)[C@@H](C[C@@H](OC)C[C@H](C2)O3)O4)co1	-1
C=C(CC1(C(C)NP(=O)(c2ccccc2)c2ccccc2)CC1)c1ccccc1 (centres undefined)	0.858

### Prompt Item CN1CCc2nc(CO)c(CO)cc2C1 with XIP peptide (Xip251-270) - composite z-score?
### Response -0.446

### Prompt // same read-out, input: COC(=O)[C@@]1(Cc2ccc(F)cc2)[C@H]2c3cc(C(=O)N(C)C)[nH]c3C[C@H]2CN1C(=O)c1ccccc1
### Response 0.17

### Prompt // same read-out, input: COc1cc2c(cc1O)C(C)N(C)CC2 (centres undefined)
### Response 0.229

### Prompt // same read-out, input: CCOC(=O)[C@H]1CC=C2C(=O)Oc3ccc(Br)cc3[C@@H]21
### Response 0.694

### Prompt // same read-out, input: CCCc1cc2c(n1CCO)C(C)C1CN(C(=O)c3ccccc3)C(C)(C(=O)OC)C21 (centres undefined)
### Response 0.719

### Prompt // same read-out, input: CCc1cc2c(nc1CC)CCN(CCC(C)=NOC)C2
### Response -0.0832

### Prompt // same read-out, input: CCCc1cc2c(n1Cc1ccc(C)cc1)C(C)C1CN(C(=O)c3ccccc3)C(C)(C(=O)OC)C21 (centres undefined)
### Response 0.73

### Prompt // same read-out, input: CN1CCC(c2ccc(CO)cc2)=CC1C1CC1 (centres undefined)
### Response 0.005

### Prompt // same read-out, input: c1ccc(-c2cc3c(nc2-c2ccccc2)CCNC3)cc1
### Response 0.0762
